# credit: the RNAGym collection of RNA variant scans (doi:10.1073/pnas.2313332121)

B1: TPR t1 (parent)
chain: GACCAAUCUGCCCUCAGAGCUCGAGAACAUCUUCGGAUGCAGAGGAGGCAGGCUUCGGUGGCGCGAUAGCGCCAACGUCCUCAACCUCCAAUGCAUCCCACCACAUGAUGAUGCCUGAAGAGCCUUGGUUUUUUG

variants of: B1; experiment: polymerase ribozyme fitness, log enrichment relative to wild type (log ratio); higher = more active; in vitro selection for triplet polymerase activity
Each entry below lists one item and its recorded polymerase ribozyme fitness (log ratio) value.
The reply should be a number, written without any unit.

G47A C102A: -2.65
C89U U109C: -3.31
C11U G42U G48C C88U G135C: -1.51
A50U U112A U125C: -0.475
U9G U59G C88A A118U: 0.424
C15G A18U C70U U116A G120U: -1.19

Task item: Find the recorded polymerase ribozyme fitness (log ratio) belonging to U59A G77U G117U and report it.
Reply: -2.87

Task item: Same lookup for A18C U32C A37U A50U G60A G113A , please.
Reply: -5.4

Task item: Same lookup for C82G G110U , please.
Reply: -3.25

Task item: Same lookup for A68U A121U , please.
Reply: -6.36

Task item: Same lookup for C12A U21C A83C , please.
Reply: -0.123
